- measured-on: phosphorylated BTK in Ramos cells (Homo sapiens (Human), UniProt Q06187)
- Sequence (Q06187 whole entry): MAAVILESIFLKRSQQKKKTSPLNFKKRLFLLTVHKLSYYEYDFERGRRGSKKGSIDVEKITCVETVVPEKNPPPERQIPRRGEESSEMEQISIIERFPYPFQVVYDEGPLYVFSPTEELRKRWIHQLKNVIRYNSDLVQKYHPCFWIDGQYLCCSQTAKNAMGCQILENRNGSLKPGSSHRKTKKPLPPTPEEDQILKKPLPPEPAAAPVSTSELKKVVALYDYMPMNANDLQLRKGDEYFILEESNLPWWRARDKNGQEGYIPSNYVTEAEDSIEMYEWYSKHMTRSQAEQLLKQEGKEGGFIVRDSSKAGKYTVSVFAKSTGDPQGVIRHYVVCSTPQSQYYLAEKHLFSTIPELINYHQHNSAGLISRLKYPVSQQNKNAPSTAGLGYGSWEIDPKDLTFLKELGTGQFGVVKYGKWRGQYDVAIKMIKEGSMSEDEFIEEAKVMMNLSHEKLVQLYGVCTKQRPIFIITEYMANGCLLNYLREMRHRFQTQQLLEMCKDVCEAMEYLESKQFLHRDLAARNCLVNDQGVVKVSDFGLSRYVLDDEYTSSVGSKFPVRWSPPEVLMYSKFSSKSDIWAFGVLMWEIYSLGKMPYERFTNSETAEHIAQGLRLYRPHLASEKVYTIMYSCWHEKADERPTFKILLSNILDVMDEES
- protocol: Determination of phosphorylated BTK in Ramos cells (BTK phospho-Y223 HTRF)
- assay-context: anti-human IgM + hydrogen peroxide stimulation
Kindly supply the reported pIC50 values for the records listed here.
Please note pIC50 is a logarithmic value: minus log10 of concentration in mol/L. Answer with that number alone.

## Task Quick one: give measured pIC50 for C[C@H]1CN(C2COC2)CCN1c1ccc(Nc2cc(-c3ccnc(-n4ccn5c6c(cc5c4=O)CCC(F)(F)C6)c3CO)cn(C)c2=O)nc1 [Compound 56]
## Result 7.62

## Task Read off the recorded pIC50 for CC[C@H]1CN(C2COC2)CCN1c1ccc(Nc2cc(-c3ccnc(-n4ccn5c6c(c(F)c5c4=O)CCCC6)c3CO)cn(C)c2=O)nc1 [Compound 227]
## Result 8.30

## Task # return recorded pIC50 for entry Cc1c(-c2ccnc(-n3ccn4c5c(cc4c3=O)CC(C)(C)C5)c2CO)cc(Nc2ccc(N3CCN(C4COC4)C[C@@H]3C)cn2)c(=O)n1C [Compound 11]
## Result 6.81

## Task Look up pIC50 of Cn1cc(-c2ccnc(-n3ccn4c5c(cc4c3=O)CC(C)(C)C5)c2CO)cc(Nc2cc3n(n2)CCOC3)c1=O [Compound 162] and report it.
## Result 8.22

## Task Specify measured pIC50 for C[C@H]1CN(C2COC2)CCN1c1ccc(Nc2cc(-c3ccnc(-n4ncn5c6c(cc5c4=O)CC(C)(C)C6)c3CO)cn(C)c2=O)nn1 [Compound 213] .
## Result 7.82

## Task Please give measured pIC50 of the following entry: CC(C)n1cc(Nc2cc(-c3ccnc(-n4ccn5c6c(cc5c4=O)CC(C)(C)C6)c3CO)cn3ncnc23)nn1 [Compound 18]
## Result 8.40
